System: KRAS G12D
measurement.notes: In vitro transcription-translation (IVTT) assay, KRAS G12D reporter
Format: biochemical
condition.description: HeLa S3 lysate, sfGFP/mCherry ratio, 2 hrs at 30° C.
Counter-ions that a name gives are not always drawn.
readout.type: IC50

{"columns": ["compound", "endpoint.result"],
 "data": [
  ["COc1ccc(C[C@H]2NC[C@H](O)[C@H]2OC(=O)NCC[C@@H]2NC(=O)C3(CCNCC3)NC2=O)cc1", "> 30 µM"],
  ["COc1ccc(C[C@H]2NC[C@H](O)[C@H]2OC(=O)NCC2CC2)cc1", "< 10 µM"],
  ["COc1ccc(C[C@H]2NC[C@H](O)[C@H]2OC(=O)NCCOCCN(C)C)cc1", "> 30 µM"],
  ["COc1ccc(C[C@H]2NC[C@H](O)[C@H]2OC(=O)NC2CC(F)(F)C2)cc1", "> 30 µM"],
  ["COc1ccc(C[C@H]2NC[C@H](O)[C@H]2OC(=O)NCCN2CC(O)(CNC(C)=O)C2)cc1 [V187582, hydrochloride]", "> 30 µM"],
  ["COc1ccc(C[C@H]2NC[C@H](O)[C@H]2OC(=O)NCc2ccn[nH]2)cc1", "< 10 µM"],
  ["COc1ccc(C[C@H]2NC[C@H](O)[C@H]2OC(=O)NCC[C@H]2CN(Cc3ccccc3)CCN2Cc2ccccc2)cc1", "> 30 µM"],
  ["COc1ccc(C[C@H]2NC[C@H](O)[C@H]2OC(=O)NCCN2C(=O)CNC2=O)cc1", "> 30 µM"],
  ["CCN(CC)Cc1nnc(NC(=O)O[C@@H]2[C@@H](O)CN[C@@H]2Cc2ccc(OC)cc2)s1", "> 30 µM"],
  ["COc1ccc(C[C@@H]2NC[C@@H](O)[C@H]2OC(=O)NCCN(Cc2c[nH]cn2)C(=O)C2CCC2)cc1", "> 30 µM"],
  ["COc1ccc(C[C@H]2NC[C@H](O)[C@H]2OC(=O)NC[C@@H]2CCCO2)cc1 [V187521]", "10 to 20 µM"],
  ["COc1ccc(C[C@H]2NC[C@H](O)[C@H]2OC(=O)NCc2ncc[nH]2)cc1", "20 to 30 µM"]
]}
